System: RXF 393
ASSAY_DETAILS: NCI tumour cell line growth inhibition, 48 h
Active and inactive are the calls of the source. Cut-off read from the data, not from the text of the source: active = GI50 up to about 1.1 µM and inactive = higher.
VALUE_KIND: GI50

Worked set:
| MOLECULE | GI50 |
| --- | --- |
| O=C1OC(c2ccccc2)=N/C1=C/NC(Cc1c[nH]c2ccccc12)C(=O)O (centres undefined) | > 100 µM (inactive) |
| COc1ccc(-c2cc(-c3cc(Cl)cc(Br)c3O)nc(O)n2)cc1 | 14.5 µM (inactive) |
| CCCCCCCCCCC/C=C(/C(=O)CCCO[Si](C)(C)C(C)(C)C)C(=O)OC | > 100 µM (inactive) |

# next molecule below
[Q] Missing value: GI50, RXF 393, entry O=c1cc(-c2ccc(Cl)cc2)oc2cc(OCCCOc3ccc4c(=O)cc(-c5ccc(Cl)cc5)oc4c3)ccc12 . Fill in?
[A] > 100 µM (inactive)

----------
Tested on: OVCAR-5
ASSAY_DETAILS: NCI tumour cell line growth inhibition, 48 h
Activity calls are given as the source filed them. No stated cut-off is given here; in the data, active = GI50 up to about 1.1 µM and inactive = higher.
VALUE_KIND: GI50

| SUBSTANCE_SMILES | GI50 |
| --- | --- |
| Cc1ccccc1/C=C/c1csnn1 | > 100 µM (inactive) |
| COC(=O)c1oc([N+](=O)[O-])c(-c2ccccc2)c1-c1ccccc1 | > 100 µM (inactive) |
| CN(C)CCCNC(=O)c1c(O)c2ccccc2n(C)c1=O | 63 µM (inactive) |

// input: 3 molecules below; output: GI50 for each
1. CSc1sc(=S)sc1C(=O)N(C)c1ccccc1
2. CCOC(=O)c1c2ccccc2n2c(=O)n(-c3ccc(OC)cc3)nnc12
3. N#C/C(=C/C=C/c1ccco1)C(N)=O

[A]
1. > 100 µM (inactive)
2. 46.1 µM (inactive)
3. > 10 µM (inactive)

----------
Test system: EKVX
ASSAY_DETAILS: NCI tumour cell line growth inhibition, 48 h
Active and inactive are the calls of the source. No stated cut-off is given here; in the data, active = GI50 up to about 1.1 µM and inactive = higher.
Would you kindly list GI50 for each of these compounds?

Recorded results for 4 compounds are shown here.
| COMPOUND | TARGET_UNDER_TEST | GI50 |
| --- | --- | --- |
| C[C@@H]1OC(=O)C[C@H]2CC(=O)N(CCC3CN(C(=O)OCc4ccccc4)c4ccccc43)C[C@@H]21 (stereo not given in full) | EKVX | > 100 µM (inactive) |
| COc1cc(/C=N/c2ccc(Oc3ccc(Cl)cc3)c(Cl)c2)cc(OC)c1OC | EKVX | 21.1 µM (inactive) |
| Cc1cc(N)c2cc(NC(=O)Nc3ccc4nc(C)cc(N)c4c3)ccc2n1 | EKVX | > 100 µM (inactive) |
| CC(=O)OC1CC[C@@]2(C)C(=CC[C@@H]3[C@@H]2CC[C@]2(C)C(OC(C)=O)[C@H](n4ccnc4)C[C@@H]32)C1 (stereo not given in full) | EKVX | 37.7 µM (inactive) |

Attention now turns to another entry.
[Q] What value of GI50 has been recorded for this entry: NC1c2c(Br)sc(N3CCCC3)c2C(=O)C1O (stereo not given)
[A] > 50 µM (inactive)

----------
What GI50 was measured for each of the following?
System: UACC-257
ASSAY_DETAILS: NCI tumour cell line growth inhibition, 48 h
Activity calls are given as the source filed them. Cut-off read from the data, not from the text of the source: active = GI50 up to about 1.1 µM and inactive = higher.

Solved entries (count: 3):
| MOLECULE | RESULT |
| --- | --- |
| COc1ccc([C@H]2CC3C(=O)N(c4ccc(OC)cc4)C(=O)C3c3[nH]c4ccccc4c32)cc1 (some centres undefined) | > 100 µM (inactive) |
| O=c1cc(-c2ccc(Cl)cc2)oc2cc(OCCCOc3ccc4c(=O)cc(-c5ccc(Cl)cc5)oc4c3)ccc12 | > 100 µM (inactive) |
| COC(=O)C1=Cc2cc(OC)c(OC)c(OC)c2[C@H](c2cc(OC)c(OC)c(OC)c2)C1C(=O)OC (some centres undefined) | > 100 µM (inactive) |

Below is a list of molecules. For each, state its recorded GI50.
1. CN1c2ccccc2C2=C(c3ccccc3)CC[C@@H](C(=O)N3C4CC5CC[C@@]4(CS3(=O)=O)C5(C)C)[C@@H]21 (some centres undefined)
2. CC(C)(C)OC(=O)C1=C(O)C(C(=O)OC(C)(C)C)C23CCCCC12C(C(=O)OC(C)(C)C)C(O)=C3C(=O)OC(C)(C)C (centres undefined)
3. CSc1nc(=O)n(CCC#N)nc1SC
4. Cc1c(Cl)cccc1/N=N/C(=O)NNc1cccc(Cl)c1C
5. CN(C)CC1CC/C(=C\c2ccc(Cl)cc2)C1=O (centres undefined)
6. CN1N=C(N)c2cn(C3OC(COP(=O)(O)O)C(O)C3O)c3ncnc1c23 (centres undefined)

[A]
> 100 µM (inactive)
> 100 µM (inactive)
> 10 µM (inactive)
23.1 µM (inactive)
8.17 µM (inactive)
152 µM (inactive)
